Attribution: PubChem BioAssay AID485344

compounds and their reported inhibition
System: D(2) dopamine receptor (Homo sapiens)
Test Details: HTS Assay for Allosteric Antagonists of the Human D2 Dopamine Receptor: Primary Screen for Antagonists; also: 0% is about no effect
Test Settings: HEK293 TREx D2 cells, calcium flux, dopamine EC80; at 10 µM; hits give high values
Among all 340,000 compounds or so, about 6,900 (2%) were called active. The sample as a whole holds a higher share of actives than the screen did.
State just the number; it will be interpreted in %.

- Substance Smiles: "O=C(CN1CCN(c2ccc(Cl)cc2)CC1)c1ccccc1"
  Measurement Units: "%"
  Observed: 22.1
- Substance Smiles: "O=C(NC(=S)N1CCN(Cc2ccccc2)CC1)c1ccccc1"
  Measurement Units: "%"
  Observed: 31.2
- Substance Smiles: "O=C(Nc1ccccc1)N1CCN(Cc2ccccc2)CC1"
  Measurement Units: "%"
  Observed: 13.1
- Substance Smiles: "CCc1nnc(NC(=O)CCCSc2nc3ccccc3[nH]2)s1"
  Measurement Units: "%"
  Observed: -10.6
- Substance Smiles: "O=C(Cn1c(N2CCN(C/C=C/c3ccccc3)CC2)nc2ccccc21)c1ccccc1"
  Measurement Units: "%"
  Observed: 47.6

Entry CCC(C)(C)NC(=O)/C=C/c1cc(OC)c(OC)c(S(=O)(=O)N2CCc3ccccc32)c1 has what inhibition?
40.9

inhibition lookup needed for COc1ccc(-c2cc(=O)c3c(O)cc(O[C@@H]4O[C@H](CO[C@@H]5O[C@@H](C)[C@H](O)[C@@H](O)[C@H]5O)[C@@H](O)[C@H](O)[C@H]4O)cc3o2)cc1O , thanks.
3.3

Consider the compound CCOC(=O)COc1cc(O)c2c(=O)cc(-c3ccccc3)oc2c1 and give its measured inhibition.
3.55

Sample CCCCSc1nc2ccccc2[nH]1 — what was its inhibition?
22.4

inhibition lookup needed for COc1c(O)cc2oc(-c3ccc(O)c(O)c3)cc(=O)c2c1O , thanks.
36.2
